- system under test: S. pneumoniae Topoisomerase IV ATPase (ParE) (Streptococcus pneumoniae serotype 4, UniProt Q59961)
- Sequence (Q59961 whole entry): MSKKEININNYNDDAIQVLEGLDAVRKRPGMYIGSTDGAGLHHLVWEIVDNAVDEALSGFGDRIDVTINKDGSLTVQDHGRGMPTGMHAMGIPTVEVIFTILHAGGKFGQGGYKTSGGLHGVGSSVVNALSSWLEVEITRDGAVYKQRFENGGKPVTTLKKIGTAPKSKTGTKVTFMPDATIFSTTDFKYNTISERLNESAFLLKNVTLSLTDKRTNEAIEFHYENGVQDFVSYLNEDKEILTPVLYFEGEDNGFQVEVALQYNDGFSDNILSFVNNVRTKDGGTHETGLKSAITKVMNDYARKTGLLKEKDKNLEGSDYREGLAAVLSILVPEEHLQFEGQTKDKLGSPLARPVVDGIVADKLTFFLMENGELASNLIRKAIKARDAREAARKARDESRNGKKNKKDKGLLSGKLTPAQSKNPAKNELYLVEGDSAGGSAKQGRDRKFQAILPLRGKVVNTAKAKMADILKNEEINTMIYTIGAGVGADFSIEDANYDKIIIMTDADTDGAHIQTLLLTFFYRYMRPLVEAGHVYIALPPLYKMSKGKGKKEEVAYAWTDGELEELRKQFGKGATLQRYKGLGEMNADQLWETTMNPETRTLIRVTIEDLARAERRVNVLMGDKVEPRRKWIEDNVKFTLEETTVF
- test: S. pneumoniae Topoisomerase IV ATPase inhibition
- Assay type: biochemical
- measurement conditions: values marked * are an average of two or more data points, read-out: % Inh (13 μM) of S. pneumoniae Topoisomerase IV ATPase
So basically: inhibition at 13 µM at 80% or higher? That is condition met. Lower than 80%? That is condition not met.

>>> qualitative_label("COc1cc(Nc2ncc(-c3cccc(/C=C/C(N)=O)c3)c(NCCc3ccncc3)n2)cc(C(F)(F)F)c1")
"condition met"
>>> qualitative_label("COCCCNc1nc(Nc2ccc(F)c(Cl)c2)ncc1-c1cncc(C(=O)O)c1")
"condition met"
>>> qualitative_label("COc1ncc(-c2cnc(Nc3cc(C)cc(C#N)c3)nc2-n2nc(C(F)(F)F)cc2C)cc1C(=O)O")
"condition met"
>>> qualitative_label("O=C(O)/C=C/c1cncc(-c2cnc(Nc3ccc(F)c(Cl)c3)nc2-n2ccc(C(F)(F)F)n2)c1")
"condition met"
>>> qualitative_label("CCOC(=O)c1cncc(-c2cnc(Nc3ccc(F)c(Cl)c3)nc2NCc2cnc(C)cn2)c1")
"condition not met"
>>> qualitative_label("CCOC(=O)/C=C/c1cccc(-c2cnc(Nc3ccc(F)c(Cl)c3)nc2-n2cccn2)c1")
"condition not met"

Attention now turns to another entry.
// query State whether the measured inhibition at 13 µM reaches 80%, counting equality as reaching it, for `COc1cc(C#N)cc(Nc2ncc(-c3cnc(OC)c(C(=O)O)c3)c(-n3ccc(C(F)(F)F)n3)n2)c1`
// result condition met

---

- system under test: S. pneumoniae Topoisomerase IV ATPase (ParE) (Streptococcus pneumoniae serotype 4, UniProt Q59961)
- test: S. pneumoniae Topoisomerase IV ATPase inhibition
- Type: biochemical
- measurement conditions: values marked * are an average of two or more data points, read-out: % Inh (13 μM) of S. pneumoniae Topoisomerase IV ATPase
observed property: inhibition at 13 µM (%)
Unit % implied. Number only.

Some molecules with recorded inhibition at 13 µM:
>>> observed_result("COc1cc(Nc2ncc(-c3cncnc3)c(-n3nc(C(F)(F)F)cc3C)n2)cc(C(F)(F)F)c1")
100
>>> observed_result("COc1cc(Nc2ncc(-c3cncc(C(=O)NCCS(C)(=O)=O)c3)c(-n3ccc(C(F)(F)F)n3)n2)cc(OC)c1")
100

--- query ---
// query Report inhibition at 13 µM for `COc1ncc(-c2cnc(Nc3cccc(C(C)=O)c3)nc2-n2nc(C(F)(F)F)cc2C)cc1C(=O)O` please.
// result 100

---

- system under test: UniProtKB Q59961
- test: S. pneumoniae Topoisomerase IV ATPase inhibition
- Type: biochemical
- measurement conditions: values marked * are an average of two or more data points, read-out: % Inh (13 μM) of S. pneumoniae Topoisomerase IV ATPase
observed property: inhibition at 13 µM (%)
Reply with just the number (in %).

>>> observed_result("COc1cc(Nc2ncc(-c3cnc(OCCCS(C)(=O)=O)c(C(=O)O)c3)c(-n3nc(C(F)(F)F)cc3C)n2)cc(OC)c1")
100
>>> observed_result("COc1cc(Nc2ncc(-c3cnc(OC)c(C(=O)O)c3)c(-n3nc(C(F)(F)F)cc3C)n2)cc(OC)c1")
100
>>> observed_result("CNC(=O)c1cc(-c2cnc(Nc3cc(OC)cc(OC)c3)nc2-n2ccc(C(F)(F)F)n2)cnc1OC")
100

// query Requested field: inhibition at 13 µM. Item: `COc1ncc(-c2cnc(Nc3cc(C)cc(C)c3)nc2-n2nc(C(F)(F)F)cc2C)cc1C(=O)O`
// result 100
